pIC50: −log10 of the molar value.
Across several publications, the following pIC50 results were reported for MAPK1(ERK2) enzyme (Homo sapiens, UniProt P28482).
assay.metric: pIC50

Solved cases (4 shown):
[
  {
    "compound": "O=C(NCCCCO)Nc1ccc2ncc(-c3ccccc3)nc2n1",
    "study.target": "MAPK1(ERK2) enzyme (Homo sapiens, UniProt P28482)",
    "pIC50": 6.81
  },
  {
    "compound": "CC(NC(=O)c1nc2cc3c(-c4ccncc4)n[nH]c3cc2[nH]1)c1cnccn1 (centres unmarked)",
    "study.target": "MAPK1(ERK2) enzyme (Homo sapiens, UniProt P28482)",
    "pIC50": 9.04
  },
  {
    "compound": "CCNC(=O)Nc1ccc2ncc(Nc3ccc(O)cc3)nc2n1",
    "study.target": "MAPK1(ERK2) enzyme (Homo sapiens, UniProt P28482)",
    "pIC50": 4.71
  },
  {
    "compound": "Cc1cnc(Nc2ccnn2C)nc1-c1cn2c(n1)C(=O)N(Cc1ccnc(C(F)(F)F)n1)[C@@H](C)C2",
    "study.target": "MAPK1(ERK2) enzyme (Homo sapiens, UniProt P28482)",
    "pIC50": 8.96
  }
]

I: C[C@@H](NC(=O)c1nc2cc3c(-c4ccncc4)n[nH]c3cc2[nH]1)c1ccccc1
II: COc1c(CO)cccc1-c1cnc2ccc(NC(=O)N[C@H](C)CCCc3ccccc3)nc2n1
Consider I and II . Which of these has its pIC50 at a higher number? Please indicate the selected item by its label.
I
(I: 9.72, II: 9.00)
